# experimental.target: T1, SRC SH2 domain (human, UniProt P12931-1 151-248)
# T1 construct: SRC, human; also called c-Src; source: bacterial expression, purified
# procedure.summary: fluorescence polarisation; saturation binding in solution: rhodamine peptide fixed at 10 nM, protein titrated 0.002-10 uM, 20 min at room temperature; assay buffer 20 mM HEPES, 100 mM KCl, 0.1% Tween-20, 5 mM DTT, pH 7.8; apparent KD
# assay.setup: both partners purified
Non-standard residues stand in square brackets, D forms with d. No end group written: not given here. pY = N[C@@H](Cc1ccc(OP(=O)(O)O)cc1)C(=O)O; rhodamine = not defined here
readout.kind: Kd (nM)
Please respond with the number in nM and leave the unit unwritten.

// Kd lookup, key: rhodamine-EELG[pY]EYMDVGSD (reading uncertain, human ErbB3 around Tyr1222; also called labeled peptide 5; source: synthetic peptide) [ErbB3pY1222 phosphopeptide, rhodamine-labelled]
2330
